Data origin: the supplement of paper PMC12764529

I'd be grateful if you could share measured folding stability dG unfold for these entries.
test: folding stability dG unfold (combined trypsin and chymotrypsin); higher = more stable
Give bare numbers, in kcal/mol.

SAGGSLPELLKLAKELAKKLGAKDLTAKESGEITIKSPENITITVSTEDGEPVVTINNTSTSSTIPLSAGGS [r16_296_JUSTAS] | -0.18
SAGGMEIVSSGSLEEAIALLKENPNTTITVTLPDGTTVVIKVTQNGEGPYIYDVSTEPPAAAPSPSLVSAGG [r13_56_JUSTAS] | 1.66
SMYRIEVVRDGKPIPREAVEAAAEAIERARGRPISPEALARELASVPNTVVTVEAYDEPGKPLGTLTFAESA [r9_1045_TrMRF] | -0.703

State the recorded folding stability dG unfold for every item in the following list.
1. SAGGMTFSGVTREQALAIAKALEEEGYVLERVEVVEFPEDGTVRALVVVRDPETDEPLAEIELDIKPSAGGS [r16_750_TrMRF]
2. SAGGPPNYRIKIEYYPPNGMITVELPFDSPDELLDEIRELPGLPVEPDNDGTIIIMFPNHMIKIDIWKSAGG [r13_143_TrROS]

1.7
2.51

* * *

assay: folding stability dG unfold (combined trypsin and chymotrypsin); higher = more stable
Kindly supply the reported folding stability dG unfold values for the records listed here.

Worked examples follow.
SAGMVKIEIEKKEDGEILITITAPSEEELKKLAEELAKELAKKLGIEEIEVKVEKLENGEYKVTIRIKKSAG [r5_772_TrROS_Hall] | 2.99 kcal/mol
SAGGSAGGDVVIIPEPSEEDKMIFTIVADGEEAPVVLTVEADNLADVVDFLKEHGLAAGHPDDGSAGGSAGG [r6_40_TrMRF] | 0.679 kcal/mol
SAGGSAGGSAMPVVEIGLEMEPYEPEAGGKLMLVPIKDNLLPEHALAAARLLEPLGVVTAPSAGGSAGGSAG [r3_157_TrMRF] | < -1 kcal/mol

Consider the additional sequence presented here.
// recorded folding stability dG unfold for SAGGSGPMTRSITITVTPEIVRDEKGNVTATKYTVTITRSPEVSPEEVEALAAELNAAGIPTTVTPSAGGSA [r2_456_JUSTAS] : 1.5 kcal/mol

* * *

experiment: folding stability dG unfold from trypsin proteolysis; higher = more stable
Kindly state folding stability dG unfold for each of the entries shown.
Give bare numbers, in kcal/mol.

Guide cases for folding stability dG unfold, answers given:
SAGGMITLEIELEDGTKIKIEITRLVSYDEEKGYAIFEAKITVEKDGKKFEKTITIIVKKGTKPGEIISAGG [r13_823_TrROS_Hall] | 4.45
SAGMVEVSVTVSPRADGTITVTITLTKTFPVKDSKGNLYLETTTKTVTVPVTSLEEAPVIVKEVIDKLSAGG [r19_218_JUSTAS] | 3.82
WRIRVEIEMYNPDGDPMEMEIQIPVDKLQELRQEGEPFTKEELVDEIVEIIRDMMPEHGMPIEIKIVEIVPS [r1_174_TrROS] | 1.64

The recorded folding stability dG unfold for SAGGSPNFRIHIEGPEGKTLQYPVDPGFNKPDIQDWLQELGNIEIDQHPNDGWITIRIPKDALDQFSAGGSA [r2_164_TrROS] is 0.226

* * *

Can you tell me folding stability dG unfold for the items I'm about to list?
experiment: folding stability dG unfold (combined trypsin and chymotrypsin); higher = more stable
Give bare numbers, in kcal/mol.

Below, 8 sequences whose answers are already recorded.
SAMDIEIEPTEGMMEIKLPGKEIHIMQHPNYMHIQIKYPEGEPVSIPIDPNSPPEDMIDNLLKLLEKAGSAG [r14_618_TrROS] | -0.499
SAGGSAGGKPDLLLEARTDLFGEEREAEVFYDPSPPVLTITLPDGTVITLPEEEVEIEKETPLISAGGSAGG [r6_185_JUSTAS] | -0.243
SAGGSAGGSAGGMSSTVSLSTSFLPNGEKVVTTTTTFTDSSTTTTTTTTTTVALPPPSVVSAGGSAGGSAGG [r7_495_JUSTAS] | 1.23
SAGWRQILDMARNMLENGHMFRIEWTGPGGKPQEFRIPLDDIETLLDNWPDPDDIRSVDIEVYPPGEPISAG [r5_957_TrROS] | 2.22
SAGGSAGGSSSATLAADETATLRFRVTLTFGSGVRSGTADLSGSVSATVEVDVEIEVRNLADDSAGGSAGGS [r12_668_TrMRF] | 4.24
SAGGSAGGSAGMPLEELAQEALNQFQENGEPVEIDIEVETPNGEYFPFEVEINGDGLKIRSAGGSAGGSAGG [r11_954_TrROS] | -0.0909
SAGGSAGGSAGGRPIPLDEFRDMPPNWKIEFNNGKEVEIPADDIKKPIDKGDTVRIEPVPSAGGSAGGSAGG [r7_643_TrROS] | 0.188
SAGGSAGGSMIIRIKTENGEEIEIEAESEEEAKKAAEELKKELEEKGYKIEEVEIYEIPEEELSAGGSAGGS [r12_301_TrROS_Hall] | 2.05

# per-item lookup of folding stability dG unfold; items listed below
1. SAGGSAGGSKEIVIKVNVSEEDLKEKAEELLKKLEELLPPGAKIKKIEIEYDEETGELVIKIESAGGSAGGS [r12_308_TrROS_Hall]
2. SMKPGEKLEIEVEIKVEEEDEEKRKKALEEAEEKLRELFEKLGLKDIKKVEVVEVEKLPDGTVKVKIRIDSA [r9_754_TrROS_Hall]
3. SAGGSAGGSAGMTTLTVTVPAPPDALTPEDVVALLRPEYPDATITVTREGDTLVVTVTVASAGGSAGGSAGG [r11_7_JUSTAS]

1: 2.26; 2: 1.71; 3: 2.83

Here are 2 sequences. What values of folding stability dG unfold were reported for them?
1. SAGGSAGGSPTYTIDVEKYPDGYYFLKIWMPGHNRKIEHPIPPDNPDKIDEITITPNGKIKIDSAGGSAGGS [r20_11_TrROS]
2. SAGGSASVKVEETVEFLPGGVVKTTTRTFFPDGTVTTTDTVTALPPVPVYDISSPENLSPALERLASAGGSA [r15_1018_JUSTAS]

[0.263, 0.909]

* * *

experiment: folding stability dG unfold (combined trypsin and chymotrypsin); higher = more stable
metric: folding stability dG unfold (kJ/mol)
Numbers only, in kJ/mol.

SFRIEPDPDGTVTVRIPKDFPNKPAEEIADYIQKAFGPGMKIDKDIKIEPDPENGWVEITVKVKLPPGAKSA [r9_1011_TrROS] | 0.376
SAGGLIEKLKELGFEIVSVEEREETLPNGKKVRTVKITVKLPNGELVKIEVRVLPNGEVIIKIEVKKPSAGG [r13_818_TrROS_Hall] | 14.8
SAGGSAGGSSYTTSTATDPNADVTTTTTTYPDSIVTPVWDPRTGKVVETVTTTPDGTTTTVAASAGGSAGGS [r12_563_JUSTAS] | 1.21
SAGGSAGGSAGMKTVTETEFDPAAPVVTTTTSLVTLPPDGKPSITSTTTTTTAVAAPAAAASAGGSAGGSAG [r3_138_JUSTAS] | 4.3
SAGGSYLVEVVIEYPKQGVKKTVKLFVNNDPKKAEELAEDIIKELGYPDAKIEIKIIPVDPNDPRVLGSAGG [r13_682_JUSTAS] | 9.42
SAGGSTITTDVPEARELLEELVKAGIKNIKVTVELDGSTVTLEVPPDELEKLVEEIPPEAKVTLEASSAGGS [r16_636_JUSTAS] | 4.69

Please give folding stability dG unfold for each item listed below.
1. SAGGSAGGSARTLTLTFLTDSPEVAERFVRELREQKPLRVEASYRRLPDGRYLVTVTIHLDSAGGSAGGSAG [r3_273_TrMRF]
2. SAGKPKVKVKKITVTITYDPETGTITIEATIEIDGKTIKLTITITLPEELRNLKPGDTITIEITIIIEPSAG [r5_714_TrROS_Hall]
3. SAGGSAGGSAAEASVVTFPGDLTAEVTKLPDGSYAVTVTFPENPGATATLTRTPDSVTVTPSAGGSAGGSAG [r3_170_JUSTAS]
4. SAGGSAGGSAGKIEIIKDKKNGKYTVKIRNKDGEEIEIEVDSLEELEELAKKLNIEVEVESAGGSAGGSAGG [r11_1049_TrROS_Hall]
5. SAGGSAPIRIIKDPEKGTIMIRVPGPITVNQELKLRDENGKPWEIKNVEVERVGGRLIITMKVEPASAGGSA [r15_838_TrROS]
6. SAGGSAKSIKAEELAKEIADLMQERNPNWRVEIEPQPGPGPMITVKIYHRDPNNGDQQPINTFTIRSAGGSA [r15_682_TrROS]

1: 19.4; 2: 13.2; 3: -1.43; 4: 13.3; 5: 5.39; 6: 1.85

* * *

assay: folding stability dG unfold (combined trypsin and chymotrypsin); higher = more stable
metric: folding stability dG unfold (kcal/mol)
Answers are plain numbers, in kcal/mol.

SAGGSAGGSMELVIPKEEVEKMSEEVVKKIKELAKKANISISETEDSLVIPIKKVSEKVIKELSAGGSAGGS [r12_945_JUSTAS] | 0.232
SAGGSAGGSEEEKLKKLKEKLKPPKIKVKIEVKVEYDKETGKLKVEATVEINGKKYKLTIEFPSAGGSAGGS [r20_230_TrROS_Hall] | 3.49

// batch mode: one folding stability dG unfold value per listed entry
1. SAGGFEFKAVKLKKNEEKEGELGGAKVRYVSDNKGPVYQVVEFGPEYRALAKVEGDKVELVAVEEGNPSAGG [r13_92_TrMRF]
2. SAGGSMIPRLEERVLEVEVDSEEEAEKLKKELKEKIEKEHPGVEVKFELRKLPNGKYLLTITVVIPILSAGG [r13_17_JUSTAS]
3. SAGGSAGGSAGSMTPAEEKAREVEERLRREHPEFERVFVRVKEFRPETGEVTIEVEVEPRSAGGSAGGSAGG [r11_617_JUSTAS]
4. SAGGSAGGSAGGGMTPVTTTTTVTVSPDATPVNFTTPDGTTVTVTPVPSSDTATVTTTVSSAGGSAGGSAGG [r7_796_JUSTAS]
5. GSNAVEVTLEVEVTITDPKTPDNKTTTVTIPLTVKLPPSVTSLEELEALARERAEAVAAELGGTVVTVTPVS [r1_300_JUSTAS]

-0.21
3.64
-0.0464
0.724
2.49
